- Experimental System: Alpha-2C adrenergic receptor (Homo sapiens)
- Experiment Notes: compounds altering alpha2C-coupled GIRK flux – cell-based, HEK293 alpha2C/GIRK1/2, thallium flux, primary screen (AID 624);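 further: slope of fluorescence ratio to pre-addition baseline per second over 15 to 24 s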
- Condition Label: thallium flux BTC fluorescence, at 10 µM, actives lie on both sides
Below, each entry is listed with its recorded slope.
No unit in the answer, please; the number alone is enough.

Worked set:
O=c1c2ccccc2nc(SCc2cn3ccsc3n2)n1-c1ccc(F)cc1	0.00521
Cc1c(Cl)cccc1NC(=O)CCN1CCCCC1	0.00469
CCOC(=O)CSc1nc2cc(C(=O)N3CCC(C(N)=O)CC3)ccc2c(=O)n1-c1ccccc1	0.00452
COc1ccccc1-n1c(SCC(=O)NC(C)(C)C)nnc1-c1ccco1	0.0043

Request: If you can, please state the reported slope value of CCOC(=O)c1cccc(NC(=O)CSc2nnc(C3CCCCC3)n2C)c1 .
Response: 0.00599

Request: Need slope, item CC1(C)NC(=O)N(CC(O)COc2ccc(-c3ccccc3)cc2)C1=O (centres undefined)
Response: 0.00308

Request: Recorded slope for CC1Cc2nc(SCC(=O)N3CCCc4ccccc43)n(C)c(=O)c2S1 (centres undefined) , please?
Response: 0.00618

Request: Looking for the measured slope of Cc1c(C(=O)NCc2ccoc2)oc2ccc3c(c12)C(=O)CC(C)(C)O3 , can you help?
Response: 0.00522

Request: # lookup: slope of Cn1nnnc1SCC(=O)N1CCN(c2ccccc2)CC1
Response: 0.00625

Request: Tell me the measured slope of CC(=O)Nc1ccc(S(=O)(=O)N(C2=NCC(C)S2)c2ccccc2)cc1 (centres undefined) , please.
Response: 0.00617

Request: Which slope is listed for C=CCn1c(COc2cccc(C)c2)nnc1SCC(=O)NC(=O)NCc1ccco1 ?
Response: 0.00673

Request: Give the measured slope of O=C1c2ccccc2C(=O)N1CCN1CCCCC1 .
Response: 0.00644

Request: Please give the measured slope for this molecule: CCN(CC)c1ccc(C(=O)n2cnc3ccccc32)cc1
Response: 0.00386

Request: Field request: slope | item: Cn1c(=O)c2c(nc(NCC3CCCO3)n2C)n(C)c1=O (centres undefined)
Response: 0.00331

The reported measurements were obtained from PubChem BioAssay.
